Target: CSF1 receptor (CSF1R) (UniProt P07333)
Sequence (P07333 20-972 limits assumed): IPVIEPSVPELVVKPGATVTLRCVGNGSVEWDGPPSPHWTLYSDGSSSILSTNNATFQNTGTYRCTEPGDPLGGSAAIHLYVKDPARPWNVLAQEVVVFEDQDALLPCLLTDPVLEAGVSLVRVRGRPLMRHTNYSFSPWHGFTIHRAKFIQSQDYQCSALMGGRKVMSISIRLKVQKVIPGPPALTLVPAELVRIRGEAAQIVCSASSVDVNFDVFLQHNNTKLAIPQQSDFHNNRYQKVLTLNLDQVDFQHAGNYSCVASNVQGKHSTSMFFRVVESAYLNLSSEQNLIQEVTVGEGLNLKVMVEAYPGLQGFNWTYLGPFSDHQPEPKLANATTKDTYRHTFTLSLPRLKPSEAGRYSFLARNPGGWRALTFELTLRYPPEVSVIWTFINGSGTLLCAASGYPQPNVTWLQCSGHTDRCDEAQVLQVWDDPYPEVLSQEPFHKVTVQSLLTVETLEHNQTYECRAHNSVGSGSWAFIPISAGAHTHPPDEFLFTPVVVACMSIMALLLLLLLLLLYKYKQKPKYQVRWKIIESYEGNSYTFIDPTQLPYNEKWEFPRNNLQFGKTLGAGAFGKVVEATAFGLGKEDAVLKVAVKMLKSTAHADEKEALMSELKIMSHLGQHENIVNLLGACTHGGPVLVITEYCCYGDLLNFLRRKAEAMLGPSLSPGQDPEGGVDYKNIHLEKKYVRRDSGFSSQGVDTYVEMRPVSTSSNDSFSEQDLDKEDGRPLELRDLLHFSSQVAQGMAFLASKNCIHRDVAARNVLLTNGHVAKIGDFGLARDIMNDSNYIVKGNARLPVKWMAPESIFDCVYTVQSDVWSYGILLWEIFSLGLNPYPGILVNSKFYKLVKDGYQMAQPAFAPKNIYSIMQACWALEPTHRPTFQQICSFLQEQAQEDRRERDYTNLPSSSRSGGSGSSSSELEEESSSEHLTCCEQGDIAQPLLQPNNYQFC
Experiment: cell-based or functional assay
MEASURED_PROPERTY: EC50, HEK293 CSF1R/SRE reporter, biological replica 2

[[record]]
binder = "CSF1 Q17R (ligand) EEVSEYCSHMIGSGHLRSLQRLIDSQMETSCQITFEFVDQEQLKDPVCYLKKAFLLVQDIMEDTMRFRDNTPNAIAIVQLQELSLRLKSCFTKDYEEHDKACVRTFYETPLQLLEKVKNVFNETKNLLDKDWNIFSKNCNNSFAECSSQD"
numeric_result = "7.94e-09"

[[record]]
binder = "CSF1 E82K (ligand) EEVSEYCSHMIGSGHLQSLQRLIDSQMETSCQITFEFVDQEQLKDPVCYLKKAFLLVQDIMEDTMRFRDNTPNAIAIVQLQKLSLRLKSCFTKDYEEHDKACVRTFYETPLQLLEKVKNVFNETKNLLDKDWNIFSKNCNNSFAECSSQD"
numeric_result = "2.49e-08"

[[record]]
binder = "CSF1 (wild-type human CSF1) (ligand) EEVSEYCSHMIGSGHLQSLQRLIDSQMETSCQITFEFVDQEQLKDPVCYLKKAFLLVQDIMEDTMRFRDNTPNAIAIVQLQELSLRLKSCFTKDYEEHDKACVRTFYETPLQLLEKVKNVFNETKNLLDKDWNIFSKNCNNSFAECSSQD"
numeric_result = "5.58e-09"

